target_system: UniProt P11474
Sequence (P11474 1-423): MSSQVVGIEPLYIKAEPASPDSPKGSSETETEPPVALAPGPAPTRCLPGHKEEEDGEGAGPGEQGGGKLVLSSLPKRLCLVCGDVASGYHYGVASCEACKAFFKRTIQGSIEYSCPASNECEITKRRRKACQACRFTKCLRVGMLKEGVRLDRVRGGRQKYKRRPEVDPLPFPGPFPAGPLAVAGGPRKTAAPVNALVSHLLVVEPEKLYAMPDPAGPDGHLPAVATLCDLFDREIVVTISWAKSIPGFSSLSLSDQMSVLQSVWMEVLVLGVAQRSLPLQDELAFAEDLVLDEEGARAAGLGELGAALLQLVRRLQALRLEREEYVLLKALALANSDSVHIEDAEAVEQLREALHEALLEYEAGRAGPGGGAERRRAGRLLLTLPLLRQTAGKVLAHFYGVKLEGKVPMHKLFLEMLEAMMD
protocol_summary: full-length ERR cell-based cotransfection/reporter assay in HEK293 cells
cond: read-out: ERRα EC50; full-length ERR, HEK293
pEC50: −log10 of the molar value.
assay_metric: pEC50

Using the record for CC(C)c1ccc(/C=N/NC(=O)c2ccc(O)cc2)cc1 [GSK4716] , report its pEC50.
< 5.30

meta.source: paper PMC11584170
